Method Notes: gradient 5% acetonitrile 3 min, to 50% in 2 min, to 85% in 15 min, held 3 min, 100 µL/min
Stated Conditions: column: Zorbax Extend-C18 2.1 x 50 mm; eluents: water / acetonitrile, 0.1% formic acid
Property Measured: RP-LC retention time (s)

Compound: COc1ccccc1CNC(=O)Cn1nc2c(N3CCCCCC3)nccn2c1=O
Unit Annotation: s
RP-LC retention time: 694

(a) O=S(=O)(c1ccc2c(c1)CCC2)N1CCCC1c1noc(CO)n1 (configuration not stated)
(b) CC(=O)[C@@]1(O)[C@H](C)C[C@H]2[C@@H]3C=C(C)C4=Cc5c(cnn5-c5ccccc5)C[C@]4(C)[C@H]3[C@@H](O)C[C@@]21C
Qu. Choose between a and b : whose measured RP-LC retention time value is numerically larger? Selection: enter the item's label.
Ans. b
